The reported numbers originate from paper PMC4849045.

tested on: L929 cells; test: TNF-α-induced cytotoxicity in L929 cells (MTT assay); type: cell-based; details: Mus musculus; L929 cells; 1 ng/mL TNF-α, 44 h; read-out: IC50, inhibition of TNF-α-induced decrease in cell viability
experimental_endpoint: IC50

INSERT INTO results (compound, experimental_endpoint, result) VALUES
  ('CCC(C)C(=O)OC1C2(OC(C)=O)CC3(O)C4=CC(=O)OC(c5ccoc5)C4(C)CCC3C(C)(C2=O)C(CC(=O)OC)C1(C)C (stereo not drawn) [compound 10, Carapanolide C]', 'IC50', '27 µM'),
  ('COC(=O)CC1C(C)C(=O)C2(CC3(O)C4CC(=O)OC(c5ccoc5)C4(C)CCC3(O)O2)C(OC(=O)C(C)C)C1(C)C (stereo not drawn) [compound 17, carapanolide A]', 'IC50', '25.3 µM'),
  ('CC(=O)O[C@@H]1CC2C(C)(C)C(=O)C=C[C@]2(C)C2CC[C@]3(C)C(=CC(=O)[C@@]3(O)c3ccoc3)[C@@]21C (stereo partly drawn) [compound 9, 17β-hydroxyazadiradione]', 'IC50', '6.9 µM');
